# credit: patent US20040116336A1

- TEST_SYSTEM: T1, APJ (orphan G protein-coupled receptor protein)
- T1 chain: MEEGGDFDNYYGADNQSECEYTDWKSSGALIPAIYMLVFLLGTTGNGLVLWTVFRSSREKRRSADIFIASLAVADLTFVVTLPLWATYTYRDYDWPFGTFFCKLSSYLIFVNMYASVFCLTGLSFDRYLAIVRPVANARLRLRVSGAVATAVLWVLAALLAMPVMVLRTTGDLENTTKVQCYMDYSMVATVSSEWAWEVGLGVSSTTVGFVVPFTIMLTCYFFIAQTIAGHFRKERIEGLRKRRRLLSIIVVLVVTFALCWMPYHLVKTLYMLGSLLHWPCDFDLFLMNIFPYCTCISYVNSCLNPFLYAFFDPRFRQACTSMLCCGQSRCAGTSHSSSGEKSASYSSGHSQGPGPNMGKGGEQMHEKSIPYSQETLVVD
- ASSAY_EXPLANATION: radioligand competition, 125I-labelled compound of Ref. Ex. 1 (100 pM), CHO-A10 membrane fraction
Non-standard residues stand in square brackets, D forms with d. No end group written: not given here. Phe(4-Cl) = N[C@@H](Cc1ccc(Cl)cc1)C(=O)O
# IC50 values compiled below
Entry rule: numbers only, all in nM.

BINDER	UNIT_TEXT	IC50
RRQRPRLSARGPM (also called Compound in Ex. 18) [Arg-Arg-Gln-Arg-Pro-Arg-Leu-Ser-Ala-Arg-Gly-Pro-Met]	nM	2.5
RRKRPRLSHKGPMPF (also called Compound in Ex. 23) [Arg-Arg-Lys-Arg-Pro-Arg-Leu-Ser-His-Lys-Gly-Pro-Met-Pro-Phe]	nM	9.2
RPRLSHKGPMP[Phe(4-Cl)] (also called Compound in Ex. 8) [Arg-Pro-Arg-Leu-Ser-His-Lys-Gly-Pro-Met-Pro-Phe(Cl)]	nM	13

Q) Answer with the recorded IC50 for the binder listed here: RPRLSARGPMPF (also called Compound in Ex. 24) [Arg-Pro-Arg-Leu-Ser-Ala-Arg-Gly-Pro-Met-Pro-Phe]
A) 27

Q) Answer with the recorded IC50 for the binder listed here: RRARPRLSHKGPMPF (also called Compound in Ex. 25) [Arg-Arg-Ala-Arg-Pro-Arg-Leu-Ser-His-Lys-Gly-Pro-Met-Pro-Phe]
A) 34
